Molecular target: Lysyl oxidase (Bos taurus)
Construct: The enzyme preparation was carried out at 4° C. with fresh material from bovine aorta; from tissue; host or cells: bovine aorta
Test: Lysyl oxidase inhibition, peroxidase-coupled fluorometric activity test
Type: biochemical, bovine
Conditions: as quoted in titles of Tables 2a-2d
Observation type: IC50

Exam item: Any idea what IC50 came out for CCCc1ccc(Oc2c(-n3ccnc3)cnn(-c3ccc(Cl)cc3)c2=O)cc1 on Lysyl oxidase (Bos taurus)?
Marked response: ~1470 nM

* * *

Target: Lysyl oxidase (Bos taurus, UniProt P33072)
Construct: The enzyme preparation was carried out at 4° C. with fresh material from bovine aorta; from tissue; host or cells: bovine aorta
Sequence (P33072 170-418): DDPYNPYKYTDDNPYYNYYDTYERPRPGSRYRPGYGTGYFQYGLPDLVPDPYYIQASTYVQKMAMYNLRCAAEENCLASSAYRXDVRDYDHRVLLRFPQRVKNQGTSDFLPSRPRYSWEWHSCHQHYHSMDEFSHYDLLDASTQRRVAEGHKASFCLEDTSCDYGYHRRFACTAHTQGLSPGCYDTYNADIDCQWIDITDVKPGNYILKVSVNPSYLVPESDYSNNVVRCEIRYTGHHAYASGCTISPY
Assay: Lysyl oxidase inhibition, peroxidase-coupled fluorometric activity test
Format: biochemical, bovine
Settings: Table 3
Observation type: pIC50
pIC50 (log units): -log10 of the concentration in mol/L.

Exam item: What value of pIC50 has been reported for the following compound? CCCc1ccc(Oc2c(-n3ccnc3)cnn(-c3ccc(Cl)cc3)c2=O)cc1
Marked response: 5.83
